This section presents molecules with their documented MIC values.
# System: Escherichia coli
# measurement notes: Antibacterial activity against Escherichia coli ATCC 25922 after 24 hrs by broth microdilution method
# Assay type: functional
# applied conditions: ATCC 25922, 24 h
Peptide text beside a SMILES is read from it. * marks the point of attachment. Lauroyl = CCCCCCCCCCCC(=O)*; Decanoyl = CCCCCCCCCC(=O)*
measure name: MIC (µM)

{"columns": ["molecule", "measure name", "measure unit", "endpoint value"],
 "data": [
  ["CCCCCCCCCC(=O)N[C@@H](CCCNC(=N)N)C(=O)NCC(=O)N[C@@H](CCCNC(=N)N)C(=O)N[C@@H](CCCCN)C(=O)N[C@H](C(=O)N[C@H](C(=O)N[C@@H](CCCNC(=N)N)C(=O)N[C@@H](CCCNC(=N)N)C(=O)N[C@@H](CCCCN)C(=O)N[C@@H](CCCCN)C(=O)O)C(C)C)C(C)C (Decanoyl-RGRKVVRRKK-OH)", "MIC", "µM", 6],
  ["CCCCCCCCCCCC(=O)N[C@@H](CCCNC(=N)N)C(=O)NCC(=O)N[C@@H](CCCNC(=N)N)C(=O)N[C@@H](CCCCN)C(=O)NCC(=O)NCC(=O)N[C@@H](CCCNC(=N)N)C(=O)N[C@@H](CCCNC(=N)N)C(=O)N[C@@H](CCCCN)C(=O)N[C@@H](CCCCN)C(=O)O (Lauroyl-RGRKGGRRKK-OH)", "MIC", "µM", 6]
]}
